assay: mouse plasma protein binding; format: in vitro ADME; conditions: read-out: Mouse plasma protein binding (PPB %) (converted)
OBSERVATION TYPE: fraction unbound
Enter the number alone.

# query: fraction unbound of entry Cc1cc(NC(=O)[C@H](O)c2cc(F)cc(F)c2)ccc1-c1cnc(N)c(C(=O)NC(C)C)c1
0.044
